Below, each entry is listed with its recorded Neut IC50 subtype A.
- tgt: RSV F protein of recombinant mKate-RSV, subtype A (strain A2) (Respiratory syncytial virus subtype A …, UniProt P03420 26-574)
- runDescription: cell-based or functional assay
// note: answer is a bare numeric in µg/mL

Looking for the measured Neut IC50 subtype A of ADI-14450 (antibody, V domains shown, full-length IgG (yeast-expressed); also called Antibody Number 13; Ab# 13) VH: QVQLVQSGGGLVKPGGSRRLACAASGFIFRNAWMSWVRQAPGKGLEWVGRIKRTSEGGSVDYATPVQGRFSISRDDSRNTLYLQMHSLAPDDTAVYYCSTGPPYSYFDSTGYSVVDYWGQGTLVTVSS VL: QSVLTQPPSASGTPGQRVTISCSASSSNIGDNYFYWYQQLPGKAPTLLMYGSDQRSSGVPDRFSGSQSGTSASLAISGLRSEDEAAYYCAAWDDSLSGPVFGGGTQLTVL , can you help?
0.195

Okay, now this binder:
Looking for the measured Neut IC50 subtype A of ADI-14493 (antibody, V domains shown) VH: QVQLQQWGTGLVKPSETLSLTCAVSGGAFSGHQWNWFRQPPGKGLEWIGEINVSGNTHYNVSLRSRVTISLDESKKQFSLKMTSVTAADTAIYYCAKASSGSYHFEYWFDPWSQGTMVTVSS VL: SYELTQPPSVSVAPGKMAWFTCGGSDIGSKRVHWYQQKPGQAPVLLVYDDSLRPSGTSARVSGSTSGNTATLSIISVEAGDEADYFCQVWDDADDHAVFGGGTKLTVL , can you help?
0.009
